System: HEK293
Assay: Cytotoxicity against HEK293 cells after 72 hrs by MTT assay
Type: functional, cell-based
Settings: Homo sapiens, HEK293, 72 h
In this section we review reported IC50 values for a set of compounds.
Reported property: IC50

                           substance_smiles  study_target  reported_property     result
0  COc1cc2c(c(OC)c1OC)-c1cc3cc(COC(C)=O)oc3cc1[C@@H](NC(C)=O)CC2        HEK293               IC50       1 µM
1  COc1cc2c(c(OC)c1OC)-c1cc3cc(CO)oc3cc1[C@@H](NC(C)=O)CC2        HEK293               IC50  < 0.02 µM
2  COc1cc2c(c(OC)c1OC)-c1cc3ccn(C)c3cc1C(=O)CC2        HEK293               IC50   < 0.2 µM
3  COc1cc2c(c(OC)c1OC)-c1cc3cc(-c4ccccn4)oc3cc1[C@@H](NC(C)=O)CC2        HEK293               IC50      20 µM
4  COc1cc2c(c(OC)c1OC)-c1cc3cc(-c4ccccc4)oc3cc1[C@@H](NC(C)=O)CC2        HEK293               IC50       4 µM
5  CCN(CC)Cc1cc2cc3c(cc2o1)[C@@H](NC(C)=O)CCc1cc(OC)c(OC)c(OC)c1-3        HEK293               IC50   > 100 µM
